// provenance: patent US5556979A

# System: Pseudomonas aeruginosa Walter
# Experiment Summary: Minimum inhibitory concentration (MIC), serial dilution on Iso-Sensitest agar
# Format: cell-based
# Condition Notes: 37° C., about 20 hours
# Method: The minimum inhibitory concentrations (MIC) were determined by means of serial dilution methods on Iso-Sensitest agar (Oxoid). […] The inoculated agar plates were incubated at 37° C. and the organism growth was recorded after about 20 hours. The MIC value (μg/ml) indicates the lowest concentration of active compound at which no growth could be detected with the naked eye.
Below is a list of entries, each paired with its recorded MIC value.
Recorded Metric: MIC (µg/mL)

[
  {
    "Molecule": "CC1COc2c(N3C[C@H]4[C@H](N)CC=C[C@@H]4C3)c(F)cc3c(=O)c(C(=O)O)cn1c23 (stereo partly shown) [Example 14]",
    "Recorded Metric": "MIC",
    "Obs Value": 1
  },
  {
    "Molecule": "Nc1c(F)c(N2C[C@H]3[C@H](N)CC=C[C@@H]3C2)c(F)c2c1c(=O)c(C(=O)O)cn2C1CC1 (relative stereo) [Example 19]",
    "Recorded Metric": "MIC",
    "Obs Value": 1
  },
  {
    "Molecule": "N[C@@H]1CC=C[C@@H]2CN(c3cc4c(cc3F)c(=O)c(C(=O)O)cn4C3CC3)C[C@@H]12 (relative stereo) [Example 6]",
    "Recorded Metric": "MIC",
    "Obs Value": 0.5
  },
  {
    "Molecule": "N[C@@H]1CC=C[C@@H]2CN(c3c(F)cc4c(=O)c(C(=O)O)cn(C5CC5)c4c3F)C[C@@H]12 (relative stereo) [Example 4]",
    "Recorded Metric": "MIC",
    "Obs Value": 0.25
  }
]

###

Hi! I'm sharing some MIC results obtained with Enterobacter cloacae 2427.
Recorded Metric: MIC (µg/mL)

[
  {
    "Compound": "N[C@@H]1CC=C[C@@H]2CN(c3c(F)cc4c(=O)c(C(=O)O)cn(C5CC5)c4c3F)C[C@@H]12 (relative stereo)",
    "Experimental System": "Enterobacter cloacae 2427",
    "Quantity Unit": "µg/mL",
    "Obs Value": 0.015
  },
  {
    "Compound": "CC1COc2c(N3C[C@H]4[C@H](N)CC=C[C@@H]4C3)c(F)cc3c(=O)c(C(=O)O)cn1c23 (stereo partly drawn)",
    "Experimental System": "Enterobacter cloacae 2427",
    "Quantity Unit": "µg/mL",
    "Obs Value": 0.125
  },
  {
    "Compound": "CN[C@@H]1CC=C[C@@H]2CN(c3c(F)cc4c(=O)c(C(=O)O)cn(C5CC5)c4c3F)C[C@H]21 (relative stereo)",
    "Experimental System": "Enterobacter cloacae 2427",
    "Quantity Unit": "µg/mL",
    "Obs Value": 0.125
  },
  {
    "Compound": "N[C@@H]1CC=C[C@@H]2CN(c3cc4c(cc3F)c(=O)c(C(=O)O)cn4C3CC3)C[C@@H]12 (relative stereo)",
    "Experimental System": "Enterobacter cloacae 2427",
    "Quantity Unit": "µg/mL",
    "Obs Value": 0.06
  },
  {
    "Compound": "N[C@@H]1CC=C[C@@H]2CN(c3c(F)cc4c(=O)c(C(=O)O)cn(C5CC5)c4c3Cl)C[C@@H]12 (relative stereo)",
    "Experimental System": "Enterobacter cloacae 2427",
    "Quantity Unit": "µg/mL",
    "Obs Value": 0.015
  },
  {
    "Compound": "Nc1c(F)c(N2C[C@H]3[C@H](N)CC=C[C@@H]3C2)c(F)c2c1c(=O)c(C(=O)O)cn2C1CC1 (relative stereo)",
    "Experimental System": "Enterobacter cloacae 2427",
    "Quantity Unit": "µg/mL",
    "Obs Value": 0.03
  }
]
